Hello, the source for this data is patent US20230203004A1, in case you need it.

Consider the following molecules and their measured CC50 readings.
system: HeLa cells; test: Cytotoxicity in HeLa cells (ATP content, ATPlite kit); type: cell-based
Endpoint name: CC50

item_smiles=COc1cc(C(=O)NC[C@@](O)(c2nc(-c3ccc(F)cc3)c(F)c(C(C)(C)O)c2C)C2CC2)cc2cc(C)nnc12 result="48 µM"
item_smiles=COc1cc(C(=O)NC[C@](O)(c2nc(-c3ccc(F)cc3)c(F)c(C(C)(C)O)c2C)C2CC2)cc2cc(C)nnc12 result="46 µM"

----------
assay: Cytotoxicity in HeLa cells (ATP content, ATPlite kit); type: cell-based; details: human, TOX HELA CC50
Consider the following compounds and their measured CC50 at 3 days readings.
Endpoint name: CC50 at 3 days (µM)

item_smiles=COc1cc(C(=O)NC[C@](O)(c2cc(C(C)(C)O)c(Cl)c(-c3ccc(F)cc3)n2)C(F)(F)F)cc2cc(C)cnc12 endpoint_name="CC50 at 3 days" unit_label=µM numeric_result=22
item_smiles=Cc1cnc2c(OC3CC3)cc(C(=O)NC[C@](O)(c3cc(C(C)(C)O)c(F)c(-c4ccc(C(F)(F)F)cc4)n3)C3CC3)cc2c1 endpoint_name="CC50 at 3 days" unit_label=µM numeric_result=15
item_smiles=COc1cc(C(=O)NC[C@](O)(c2cc(C(C)(C)O)c(F)c(-c3ccc(F)c(C)c3)n2)C(F)(F)F)cc2cc(C)nnc12 endpoint_name="CC50 at 3 days" unit_label=µM numeric_result=23

----------
Consider the following compounds and their measured CC50 at 3 days readings.
assay: Cytotoxicity in HeLa cells (ATP content, ATPlite kit); assay type: cell-based; conditions: human, TOX HELA CC50
Endpoint name: CC50 at 3 days (µM)

compound=COc1cc(C(=O)NC[C@@](O)(c2cc(C(C)(C)O)c(F)c(-c3ccc(F)cc3)n2)C(C)(F)F)cc2cc(C)nnc12 endpoint_name="CC50 at 3 days" numeric_result=35
compound=COc1cc(C(=O)NC[C@](O)(c2nc(-c3ccc(F)cc3)c(F)c(C(C)(C)O)c2F)C(F)(F)F)cc2cc(C)nnc12 endpoint_name="CC50 at 3 days" numeric_result=46
compound=COc1cc(C(=O)NC[C@@](O)(c2cc(C(C)(C)O)cc(-c3ccc(F)cc3)n2)C(C)(F)F)cc2cc(C)nnc12 endpoint_name="CC50 at 3 days" numeric_result=55
compound=COc1cc(C(=O)NC[C@@](O)(c2nc(-c3ccc(F)cc3)c(F)c(C(C)(C)NS(C)(=O)=O)c2F)C(F)(F)F)cc2cc(C)nnc12 endpoint_name="CC50 at 3 days" numeric_result=43
compound="COc1cc(C(=O)NC[C@](O)(c2cc(C(C)(C)O)c(F)c(-c3ccc(F)cc3)n2)C2CC2(C)C)cc2cc(C)nnc12 (single isomer, unassigned)" endpoint_name="CC50 at 3 days" numeric_result=13
compound=COc1cc(C(=O)NC[C@](O)(c2cc(C(C)(C)O)c(F)c(-c3ccc(F)cc3)n2)C(F)(F)F)cc2cc(C)c(F)nc12 endpoint_name="CC50 at 3 days" numeric_result=13
compound=COc1cc(C(=O)NC[C@](O)(c2nc(-c3ccc(F)cc3)cc(C(C)(C)O)c2F)C(F)(F)F)cc2cc(C)nnc12 endpoint_name="CC50 at 3 days" numeric_result=24
compound=COc1cc(C(=O)NC[C@](O)(c2cc(C(C)(C)O)c(F)c(-c3ccc(C(F)(F)F)cc3)n2)C2CC2)cc2cc(C)cnc12 endpoint_name="CC50 at 3 days" numeric_result=13
compound=[2H]C([2H])(NC(=O)c1cc(OC)c2nnc(C)cc2c1)[C@](O)(c1cc(C(C)(C)O)c(F)c(-c2ccc(F)cc2)n1)C1CC1 endpoint_name="CC50 at 3 days" numeric_result=33
compound=COc1cc(C(=O)NC[C@@](O)(c2cc(C(C)(C)O)cc(-c3ccc(F)cc3)n2)C2CC2)cc2cc(C)nnc12 endpoint_name="CC50 at 3 days" numeric_result=41
compound="COc1cc(C(=O)NCC(O)(c2cc(C(C)(C)O)c(F)c(-c3ccc(F)cc3)n2)C(F)F)cc2cc(C)cnc12 (single isomer, unassigned; (+))" endpoint_name="CC50 at 3 days" numeric_result=43
compound=COc1cc(C(=O)NC[C@](O)(c2nc(-c3ccc(F)cc3)c(F)c(C(C)(C)O)c2F)C(F)(F)F)cc2cc(C)cnc12 endpoint_name="CC50 at 3 days" numeric_result=43
